tested on: M19-MEL; assay: in vitro melanoma cell growth inhibition (NCI screen)
Exercise: for every item that follows, state its recorded cytotoxicity log GI50.
Express your answer in M, writing the number without its unit.

IN: I am curious: what cytotoxicity log GI50 value has been reported for `NC1=C(NC(=O)Cc2ccc(F)cc2)C(=O)c2ccccc2C1=O` ?
OUT: -5.16

IN: Sample `Cc1nc2c(n1CC(C)C)C(=O)c1ccccc1C2=O` — what was its cytotoxicity log GI50?
OUT: -4.80

IN: # lookup: cytotoxicity log GI50 of `O=C(Cc1ccccc1F)NC1=C(Cl)C(=O)c2ccccc2C1=O`
OUT: -6.36

IN: Endpoint output: cytotoxicity log GI50 of `Cc1nc2c(n1Cc1ccc(F)cc1)C(=O)c1ccccc1C2=O` . Value?
OUT: -5.44

* * *

Exercise: state measured cytotoxicity log GI50 for each of the compounds provided.
test system: LOX1MVI; assay: in vitro melanoma cell growth inhibition (NCI screen)
Note: state the figure and append the unit.

IN: Report cytotoxicity log GI50 for `Cc1nc2c(n1Cc1ccc(Cl)cc1)C(=O)c1ccccc1C2=O` please.
OUT: -5.69 M

IN: Entry `CCC(C)(C)n1c(C)nc2c1C(=O)c1ccccc1C2=O` : reported cytotoxicity log GI50 = ?
OUT: -4.71 M

IN: Which cytotoxicity log GI50 value is on record for CCC(C)NC1=C(NC(C)=O)C(=O)c2ccccc2C1=O (stereo not drawn) ?
OUT: -4.81 M

IN: Query: cytotoxicity log GI50; subject: CCC(C)n1c(C)nc2c1C(=O)c1ccccc1C2=O (stereo not drawn)
OUT: -4.64 M

IN: Returns the measured cytotoxicity log GI50 for the input compound. Input: `CCC(CC)n1c(C)nc2c1C(=O)c1ccccc1C2=O`
OUT: -4.71 M

IN: Quick one: cytotoxicity log GI50 for `Cc1nc2c(n1CC(C)(C)C)C(=O)c1ccccc1C2=O` ?
OUT: -4.25 M

IN: Quick one: cytotoxicity log GI50 for `CC(=O)NC1=C(NCCN(C)C)C(=O)c2ccccc2C1=O` ?
OUT: -4.90 M

IN: Name the reported cytotoxicity log GI50 value associated with the compound `Cc1nc2c(n1CCC(C)C)C(=O)c1ccccc1C2=O`
OUT: -4.83 M

IN: Need cytotoxicity log GI50, item `Cc1ccc(Cn2c(C)nc3c2C(=O)c2ccccc2C3=O)cc1`
OUT: -6.22 M

IN: Quick check: cytotoxicity log GI50 of `Cc1nc2c(n1CCO)C(=O)c1ccccc1C2=O` ?
OUT: -4.63 M

IN: Item under review: `COC(=O)CCC(=O)NC1=C(NCc2ccccc2)C(=O)c2ccccc2C1=O` . Reported cytotoxicity log GI50?
OUT: -4.66 M

IN: Which value of cytotoxicity log GI50 has been reported for `CCC(C)(C)NC1=C(NC(C)=O)C(=O)c2ccccc2C1=O` in the records?
OUT: -4.53 M

* * *

Give cytotoxicity log GI50 for every item shown.
tested on: HCT-116; assay: in vitro colon cancer cell growth inhibition (NCI screen)
Kindly answer with a numeric value in M, unit omitted.

IN: Dear colleague, I am looking for the recorded cytotoxicity log GI50 of the following molecule: O=C(NC1=C(Cl)C(=O)c2ccccc2C1=O)c1ccc(F)cc1 [Compound 2f]
OUT: -6.34

IN: Give the measured cytotoxicity log GI50 of CCNC1=C(NC(=O)c2ccccc2)C(=O)c2ccccc2C1=O [Compound 47] .
OUT: -4.59

IN: Fill in the blank: the reported cytotoxicity log GI50 of O=C(O)CCc1nc2c(n1Cc1ccccc1)C(=O)c1ccccc1C2=O [Compound 61] is ____.
OUT: -4.44

IN: Give the measured cytotoxicity log GI50 of CCC(C)(C)NC1=C(NC(C)=O)C(=O)c2ccccc2C1=O [Compound 36] .
OUT: -4.75

IN: What measured cytotoxicity log GI50 goes with CCCC(=O)NC1=C(NCC)C(=O)c2ccccc2C1=O [Compound 46] ?
OUT: -4.36

IN: Give the measured cytotoxicity log GI50 of CCC(CC)n1c(C)nc2c1C(=O)c1ccccc1C2=O [Compound 10] .
OUT: -4.71

Source listed as patent US5789431A.
